Entry source: patent US10760052B2

- tested.on: mu opiate receptor (MOR) (Rattus norvegicus, UniProt P33535)
- Construct: from tissue; host or cells: striatum (membrane preparation)
- Sequence (P33535 whole entry): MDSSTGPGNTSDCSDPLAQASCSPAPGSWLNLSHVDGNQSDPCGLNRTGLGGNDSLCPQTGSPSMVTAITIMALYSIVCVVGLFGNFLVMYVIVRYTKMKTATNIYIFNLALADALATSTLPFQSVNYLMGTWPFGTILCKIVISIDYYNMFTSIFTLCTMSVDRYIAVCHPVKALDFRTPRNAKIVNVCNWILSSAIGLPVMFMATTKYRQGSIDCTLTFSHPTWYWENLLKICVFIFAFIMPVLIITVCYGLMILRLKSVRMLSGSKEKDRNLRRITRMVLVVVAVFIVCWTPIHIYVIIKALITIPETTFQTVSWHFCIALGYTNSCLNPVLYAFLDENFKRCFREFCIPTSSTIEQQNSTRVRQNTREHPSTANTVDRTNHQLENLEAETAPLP
- Format: biochemical
- condition.label: [35S]GTPγS binding to Gαo in striatal membranes; compound 1 μM
outcome.measure: Concentration of FLNA-Binding Compound as Agonist 1 μM (%)
Return type: number; implicit unit %.

Sample answers from the record:
| molecule | tested.on | measured.value |
| --- | --- | --- |
| COc1cc(S(=O)(=O)N2CCC3(CC2)OCCN3S(=O)(=O)c2cc(OC)c(OC)c(OC)c2)cc(OC)c1OC [Compound C0062] | mu opiate receptor (MOR) (Rattus norvegicus, UniProt P33535) | 310.5 |
| COc1c2c(cc3c1C(CC(=O)c1cccc(C(F)(F)F)c1)[N+](C)(C)CC3)OCO2 (stereo not shown) [Compound B0006] | mu opiate receptor (MOR) (Rattus norvegicus, UniProt P33535) | 131.3 |

Short answer for O=S(=O)(c1ccc(F)cc1)N1CCC2(CC1)OCCN2S(=O)(=O)c1ccc(F)cc1 [Compound C0029] : Concentration of FLNA-Binding Compound as Agonist 1 μM was 308.8

Short answer for COc1ccc(OCC(O)CN2CC(C)OC(C)C2)cc1 (stereo not shown) [Compound A0048] : Concentration of FLNA-Binding Compound as Agonist 1 μM was 302.9
